system: SCC-4 cells; test: MTT cell viability assay, SCC-4; type: cell-based, human; details: 72 h, MTT; read-out: IC50 SCC-4
pIC50: −log10 of the molar value.
PARAMETER: pIC50

* N.N.O=C([O-])C1(C(=O)[O-])CCC1.[Pt+2] [Carboplatin, carboplatin, reference compound] | 4.56

* * *

Reported IC50 values for the following molecules.
system: primary normal human gingival fibroblasts; assay: MTT cell viability assay, primary gingival fibroblasts; format: cell-based; details: Homo sapiens, Fibroblast; 72 h, MTT; read-out: IC50 primary gingival fibroblast
PARAMETER: IC50 (µM)

- CC1(C)OC2=C(C(=O)c3ccccc3C2=O)C(Sc2ccccc2)C1Sc1ccccc1 (centres unmarked) [7a]: 57.3
- Cc1ccccc1SC1C2=C(OC(C)(C)C1Sc1ccccc1C)C(=O)c1ccccc1C2=O (centres unmarked) [7b]: 50.9
- CC1(C)OC2=C(C(=O)c3ccccc3C2=O)C(Sc2ccc(O)cc2)C1Sc1ccc(O)cc1 (centres unmarked) [7i]: 32.6
- Cc1cccc(SC2C3=C(OC(C)(C)C2Sc2cccc(C)c2)C(=O)c2ccccc2C3=O)c1 (centres unmarked) [7c]: 40.8
- CC1(C)OC2=C(C(=O)c3ccccc3C2=O)C(Sc2ccc(Cl)cc2)C1Sc1ccc(Cl)cc1 (centres unmarked) [7h]: 43
- CC1(C)OC2=C(C(=O)c3ccccc3C2=O)C(Sc2ccc(F)cc2)C1Sc1ccc(F)cc1 (centres unmarked) [7f]: 40
- COc1ccc(SC2C3=C(OC(C)(C)C2Sc2ccc(OC)cc2)C(=O)c2ccccc2C3=O)cc1 (centres unmarked) [7e]: 110
- Cc1ccc(SC2C3=C(OC(C)(C)C2Sc2ccc(C)cc2)C(=O)c2ccccc2C3=O)cc1 (centres unmarked) [7d]: 60.1
